I'd appreciate it if you could supply aptazyme ON/OFF ratio values for the items below.
B1: Pistol ribozyme (parent)
chain: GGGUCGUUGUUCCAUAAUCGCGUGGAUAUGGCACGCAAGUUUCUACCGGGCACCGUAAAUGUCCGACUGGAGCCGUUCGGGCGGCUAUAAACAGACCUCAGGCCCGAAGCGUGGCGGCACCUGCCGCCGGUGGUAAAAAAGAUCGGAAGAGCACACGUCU

Variants of: B1
Assay: aptazyme ON/OFF ratio, guanine; higher = stronger switching; co-transcriptional cleavage with and without guanine
Numbers only.

Please supply aptazyme ON/OFF ratio for each of the following items, keeping them in order.
1. U7A U8C G9A U10A C13A
2. U7G G9C U10A U11G C13U
3. U7C U8C G9A U10C U11A C12G C13A
4. U7G U8G G9C U10G C12G C13U
5. U8A G9U U10A U11C C13G

1: 1.22; 2: 1.4; 3: 1.26; 4: 1.2; 5: 1.08

Provide the reported aptazyme ON/OFF ratio of each entry below, same order.
1. U7C U8A G9A U10G U11G C12U C13U
2. U7A U8C C13A
3. U7A G9C C12G C13A
4. U7G U8G U10C U11A C12A C13G
5. G9U U10C U11C C12A C13G
6. G9C U10G C12A C13A

1. 1.2
2. 1.26
3. 1.05
4. 1.12
5. 1.27
6. 1.15

// each listed variant needs a value for aptazyme ON/OFF ratio
1. U7C U8C U10G U11C C13G
2. U7A G9A U10G C12U C13A
3. U7G U8A G9U U10A C12U C13G
4. U7G U8G G9A U11C C12G
5. U7G U8A G9C U10C U11C C12A
6. U7A U11G C12G C13A

[1.16, 1.06, 1.06, 1.33, 1.04, 1.13]

The following variants each have a reported value; give each one's aptazyme ON/OFF ratio.
1. U8G G9A U10A C12U C13G
2. U7A U8C G9C U11C C12U C13G

1: 1.31; 2: 1.09
